Below: a set of entries, each annotated with reported Ki.
SYSTEM_TESTED: T1, DRED complex (TR2/TR4 heterodimer DNA-binding core) (Mus musculus, UniProt Q505F1;P49117 Q505F1:1-590,P49117:1-596)
T1 sequence 1: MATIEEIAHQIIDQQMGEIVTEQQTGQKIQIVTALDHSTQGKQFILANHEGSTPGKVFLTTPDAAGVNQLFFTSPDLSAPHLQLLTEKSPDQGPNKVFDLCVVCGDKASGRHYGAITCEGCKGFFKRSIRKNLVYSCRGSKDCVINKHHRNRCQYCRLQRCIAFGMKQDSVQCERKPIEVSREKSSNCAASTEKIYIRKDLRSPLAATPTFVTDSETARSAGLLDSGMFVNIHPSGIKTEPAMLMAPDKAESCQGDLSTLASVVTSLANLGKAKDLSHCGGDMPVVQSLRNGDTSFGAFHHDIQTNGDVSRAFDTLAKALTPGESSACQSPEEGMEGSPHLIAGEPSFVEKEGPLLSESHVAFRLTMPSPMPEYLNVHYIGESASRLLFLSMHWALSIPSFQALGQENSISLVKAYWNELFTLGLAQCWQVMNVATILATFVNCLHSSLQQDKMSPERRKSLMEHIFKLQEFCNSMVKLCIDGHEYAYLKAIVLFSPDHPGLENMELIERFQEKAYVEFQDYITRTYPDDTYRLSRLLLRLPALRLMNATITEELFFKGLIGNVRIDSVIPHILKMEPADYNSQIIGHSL
T1 sequence 2: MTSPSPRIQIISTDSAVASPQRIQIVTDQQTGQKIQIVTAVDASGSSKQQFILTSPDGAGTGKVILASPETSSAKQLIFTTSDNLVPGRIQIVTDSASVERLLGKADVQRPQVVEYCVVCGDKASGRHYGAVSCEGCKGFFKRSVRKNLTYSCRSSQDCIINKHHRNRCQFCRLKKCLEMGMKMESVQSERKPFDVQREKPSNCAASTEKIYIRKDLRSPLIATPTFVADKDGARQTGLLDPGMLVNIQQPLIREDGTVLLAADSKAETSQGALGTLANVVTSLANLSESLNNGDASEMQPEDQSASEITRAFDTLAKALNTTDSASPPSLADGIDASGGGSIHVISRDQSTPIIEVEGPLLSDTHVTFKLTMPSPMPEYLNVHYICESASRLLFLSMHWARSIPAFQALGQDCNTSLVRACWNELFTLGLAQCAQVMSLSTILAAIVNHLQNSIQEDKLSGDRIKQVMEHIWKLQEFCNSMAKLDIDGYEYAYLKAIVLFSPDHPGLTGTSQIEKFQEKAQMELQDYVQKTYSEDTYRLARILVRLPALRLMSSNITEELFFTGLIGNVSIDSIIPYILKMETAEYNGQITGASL
PROTOCOL: competition; EMSA competition vs 1.1 nM 32P epsilon distal DR probe; judged too low for functional association
COND: protein: extract; tags: native, MEL mouse erythroleukemia cell nuclear extract; blunt ended
MEASUREMENT_KIND: Ki (nM)

• epsilon-y proximal DR (dsDNA) DNA 1: TCAGGCTGACCAATGGCTTCAAA DNA 2: TTTGAAGCCATTGGTCAGCCTGA = 59
• beta-major (dsDNA) DNA 1: TGGTAAGGGCCAATCTGCTCACA DNA 2: TGTGAGCAGATTGGCCCTTACCA = 170
• beta (dsDNA) DNA 1: TAGGGTTGGCCAATCTACTCCC DNA 2: GGGAGTAGATTGGCCAACCCTA = 420
